Where do these numbers come from? They come from paper PMC9564337.

Listed below: remaining at 6 h, 100 µM values for each entry.
- Experimental details: in vitro
- Assay type: in vitro ADME
- Condition info: human, plasma, pH 7.4, % Intact Peptide in Plasma after 6 h
Residues, ends and D or L forms follow the SMILES beside them.

| Compound | Relation qualifier | remaining at 6 h, 100 µM, % |
| --- | --- | --- |
| CC[C@H](C)[C@H](NC(=O)[C@@H](NC(=O)[C@@H]1CCCN1C(=O)[C@H](CCCNC(=N)N)NC(=O)[C@H](CCCNC(N)=NC(=O)NCCCCNC(=O)CN1CCN(CC(=O)O)CCN(CC(=O)O)CCN(CC(=O)O)CC1)NC)C(C)(C)c1ccc(O)cc1)C(=O)N[C@@H](CC(C)C)C(=O)O | > | 99 |
| CC[C@H](C)[C@H](NC(=O)[C@H](NC(=O)[C@@H]1CCCN1C(=O)[C@H](CCCNC(=N)N)NC(=O)[C@H](CCCNC(=N)N)NC)C(C)(C)c1ccc(O)cc1)C(=O)N[C@@H](CC(C)C)C(=O)O | = | 96 |
| CC(C)C[C@H](NC(=O)[C@@H](NC(=O)[C@H](Cc1ccc(O)cc1)NC(=O)[C@@H]1CCCN1C(=O)[C@H](CCCNC(=N)NC(=O)NCCCCNC(=O)CN1CCN(CC(=O)O)CCN(CC(=O)O)CCN(CC(=O)O)CC1)N(C)C(=O)[C@@H](N)CCCNC(=N)N)C(C)(C)C)C(=O)O | = | 99 |
| CC(C)C[C@H](NC(=O)[C@@H](NC(=O)[C@H](Cc1ccc(O)cc1)NC(=O)[C@@H]1CCCN1C(=O)[C@H](CCCNC(=N)NC(=O)NCCCCN)N(C)C(=O)[C@@H](N)CCCNC(=N)N)C(C)(C)C)C(=O)O | > | 99 |
| CN[C@@H](CCCNC(=N)N)C(=O)N[C@@H](CCCNC(=N)N)C(=O)N1CCC[C@H]1C(=O)N[C@@H](Cc1ccc(O)cc1)C(=O)N[C@@H](CC1CC1)C(=O)N[C@@H](CC(C)C)C(=O)O | = | 74 |
| CN[C@@H](CCCNC(=N)NC(=O)NCCOCCOCCN)C(=O)N[C@@H](CCCNC(=N)N)C(=O)N1CCC[C@H]1C(=O)N[C@@H](Cc1ccc(O)cc1)C(=O)N[C@H](C(=O)N[C@@H](CC(C)C)C(=O)O)C(C)(C)C | = | 97 |
| CN[C@@H](CCCNC(=N)N)C(=O)N[C@@H](CCCNC(=N)N)C(=O)N1CCC[C@H]1C(=O)N[C@@H](Cc1ccc(O)cc1)C(=O)N[C@H](C(=O)N[C@@H](CC(C)C)C(=O)O)C1CC1 | = | 58 |
| CC[C@H](C)[C@H](NC(=O)[C@H](Cc1ccc(O)cc1)NC(=O)[C@@H]1CCCN1C(=O)[C@H](CCCNC(=N)NC(=O)NCCCCN)NC(=O)[C@H](CCCNC(=N)N)NC)C(=O)N[C@@H](CC(C)C)C(=O)O | = | 57 |
| CN[C@@H](CCCNC(=N)N)C(=O)N[C@@H](CCCNC(=N)NC(=O)NCCCCN)C(=O)N1CCC[C@H]1C(=O)N[C@@H](Cc1ccc(O)cc1)C(=O)N[C@H](C(=O)N[C@@H](CC(C)C)C(=O)O)C(C)(C)C | > | 99 |
| CN[C@@H](CCCNC(N)=NC(=O)NCCCCNC(=O)CN1CCN(CC(=O)O)CCN(CC(=O)O)CCN(CC(=O)O)CC1)C(=O)N[C@@H](CCCNC(=N)N)C(=O)N1CCC[C@H]1C(=O)N[C@@H](Cc1ccc(O)cc1)C(=O)N[C@H](C(=O)N[C@@H](CC(C)C)C(=O)O)C(C)(C)C | > | 99 |
| CC[C@H](C)[C@H](NC(=O)[C@H](Cc1ccc(O)cc1)NC(=O)[C@@H]1CCCN1C(=O)[C@H](CCCNC(=N)N)NC(=O)[C@H](CCCNC(=N)N)NC)C(=O)N[C@@](C)(CC(C)C)C(=O)O | = | 88 |
| CN[C@@H](CCCNC(=N)N)C(=O)N[C@@H](CCCNC(=N)N)C(=O)N1CCC[C@H]1C(=O)N[C@@H](Cc1ccc(O)cc1)C(=O)N[C@H](C(=O)N[C@@H](CC(C)C)C(=O)O)C1CCCC1 | = | 95 |
| CN[C@@H](CCCNC(=N)NC(=O)NCCOCCOCCNC(=O)CN1CCN(CC(=O)O)CCN(CC(=O)O)CCN(CC(=O)O)CC1)C(=O)N[C@@H](CCCNC(=N)N)C(=O)N1CCC[C@H]1C(=O)N[C@@H](Cc1ccc(O)cc1)C(=O)N[C@H](C(=O)N[C@@H](CC(C)C)C(=O)O)C(C)(C)C | = | 99 |
| CC[C@H](C)[C@H](NC(=O)[C@H](Cc1ccc(O)cc1)NC(=O)[C@@H]1CCCN1C(=O)[C@H](CCCNC(=N)N)NC(=O)[C@H](CCCNC(=N)N)NC)C(=O)N[C@@H](CC1CC1)C(=O)O | < | 1 |
| CC[C@H](C)[C@H](NC(=O)[C@@H](NC(=O)[C@@H]1CCCN1C(=O)[C@H](CCCNC(=N)N)NC(=O)[C@H](CCCNC(=N)N)NC)C(C)(C)c1ccc(O)cc1)C(=O)N[C@@H](CC(C)C)C(=O)O | = | 97 |
| CC[C@@H](C)[C@H](NC(=O)[C@H](Cc1ccc(O)cc1)NC(=O)[C@@H]1CCCN1C(=O)[C@H](CCCNC(=N)N)NC(=O)[C@H](CCCNC(=N)N)NC)C(=O)N[C@@H](CC(C)C)C(=O)O | = | 87 |
| CN[C@@H](CCCNC(=N)N)C(=O)N[C@@H](CCCNC(=N)N)C(=O)N1CCC[C@H]1C(=O)N[C@@H](Cc1ccc(O)cc1)C(=O)N[C@@](C)(CC(C)C)C(=O)N[C@@H](CC(C)C)C(=O)O [Compound 44] (HELM PEPTIDE1{[meR].R.P.Y.[CC(C)C[C@](C)(N[*:1])C(=O)[*:2]].L}$$$$V2.0) | = | 91 |
| CN[C@@H](CCCNC(=N)N)C(=O)N[C@@H](CCCNC(=N)N)C(=O)N1CCC[C@H]1C(=O)N[C@@H](Cc1ccc(O)cc1)C(=O)N[C@H](C(=O)N[C@@H](CC(C)C)C(=O)O)C1CCC1 | = | 79 |
